- assay-details: Dark toxicity in human A2058 cells assessed as decrease in cell viability after 24 hrs by MTT assay
- Assay type: cell-based
- condition-info: read-out: EC50
endpoint-name: EC50 at 24 h

Input line: Look up EC50 at 24 h: O=[N+]([O-])c1ccc(NCCCCCN2CCC(Cc3ccccc3)CC2)cc1C(F)(F)F
Output line: 14.2 µM

Input line: Also COc1cc2c(cc1OC)CN(CCNc1ccc([N+](=O)[O-])c(C(F)(F)F)c1)CC2 ?
Output line: > 100 µM

Input line: Also COc1cccc2c1C(=O)c1c(O)c3c(c(O)c1C2=O)C[C@@](O)(C(=O)CO)C[C@@H]3O[C@H]1C[C@H](N)[C@H](O)[C@H](C)O1 ?
Output line: 6.5 µM

Input line: Also COc1cc2c(cc1OC)CN(CCCCCNc1ccc([N+](=O)[O-])c(C(F)(F)F)c1)CC2 ?
Output line: > 100 µM

====

- experimental-target: Sigma non-opioid intracellular receptor 1 (Cavia porcellus, UniProt Q60492)
- Sequence (Q60492 whole entry): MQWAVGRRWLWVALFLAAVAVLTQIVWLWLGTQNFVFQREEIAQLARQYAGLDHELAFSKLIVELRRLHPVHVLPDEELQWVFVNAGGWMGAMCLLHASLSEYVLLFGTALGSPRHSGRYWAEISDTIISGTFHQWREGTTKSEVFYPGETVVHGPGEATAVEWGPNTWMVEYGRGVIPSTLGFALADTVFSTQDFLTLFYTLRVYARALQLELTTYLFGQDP
- assay-details: Displacement of [3H]-(+)-pentazocine from sigma 1 receptor in guinea pig brain membranes after 150 mins by liquid scintillation counting method
pKi: −log10 of the molar value.
Rule: rule met for pKi not less than 7, rule not met for anything less.

Input line: Assess whether reported pKi for O=[N+]([O-])c1ccc(NCCCCN2CCC(Cc3ccccc3)CC2)cc1C(F)(F)F sits at 7 or higher.
Output line: rule met

Input line: Also O=[N+]([O-])c1ccc(NCCCCCN2CCC(Cc3ccccc3)CC2)cc1C(F)(F)F ?
Output line: rule met

Input line: Also O=[N+]([O-])c1ccc(NCCN2CCC(Cc3ccccc3)CC2)cc1C(F)(F)F ?
Output line: rule met

Input line: Also COc1cc2c(cc1OC)CN(CCCCCNc1ccc([N+](=O)[O-])c(C(F)(F)F)c1)CC2 ?
Output line: rule met

Input line: Also COc1cc2c(cc1OC)CN(CCCNc1ccc([N+](=O)[O-])c(C(F)(F)F)c1)CC2 ?
Output line: rule not met

Input line: Also COc1cc2c(cc1OC)CN(CCNc1ccc([N+](=O)[O-])c(C(F)(F)F)c1)CC2 ?
Output line: rule not met

Input line: Also COc1cc2c(cc1OC)CN(CCCCNc1ccc([N+](=O)[O-])c(C(F)(F)F)c1)CC2 ?
Output line: rule met

Input line: Also O=[N+]([O-])c1ccc(NCCCN2CCC(Cc3ccccc3)CC2)cc1C(F)(F)F ?
Output line: rule met

====

- assay-details: Dark toxicity in human A2058 cells assessed as decrease in cell viability after 24 hrs by MTT assay
- Format: cell-based
- condition-info: read-out: pEC50 (converted)
endpoint-name: EC50 at 24 h (µM)
Note: unit µM is implicit; provide only the numeric part.

Input line: Look up EC50 at 24 h: O=[N+]([O-])c1ccc(NCCCCCN2CCC(Cc3ccccc3)CC2)cc1C(F)(F)F
Output line: 14.1

Input line: Also COc1cccc2c1C(=O)c1c(O)c3c(c(O)c1C2=O)C[C@@](O)(C(=O)CO)C[C@@H]3O[C@H]1C[C@H](N)[C@H](O)[C@H](C)O1 ?
Output line: 6.46

====

- experimental-target: Sigma intracellular receptor 2 (Homo sapiens, UniProt Q5BJF2)
- Sequence (Q5BJF2 whole entry): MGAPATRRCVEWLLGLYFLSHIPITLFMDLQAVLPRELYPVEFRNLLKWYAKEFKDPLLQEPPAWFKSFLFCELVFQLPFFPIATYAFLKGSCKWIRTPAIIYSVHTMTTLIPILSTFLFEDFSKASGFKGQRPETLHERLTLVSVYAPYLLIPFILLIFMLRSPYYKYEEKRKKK
- assay-details: Displacement of [3H]-DTG from sigma 2 receptor (unknown origin) after 120 mins by liquid scintillation counting method
endpoint-name: pKi
API: returns pKi as number; meaning -log10 of concentration in mol/L.

Input line: Look up pKi: COc1cc2c(cc1OC)CN(CCCCCNc1ccc([N+](=O)[O-])c(C(F)(F)F)c1)CC2
Output line: 7.59

Input line: Also COc1cc2c(cc1OC)CN(CCNc1ccc([N+](=O)[O-])c(C(F)(F)F)c1)CC2 ?
Output line: 7.62

Input line: Also O=[N+]([O-])c1ccc(NCCN2CCC(Cc3ccccc3)CC2)cc1C(F)(F)F ?
Output line: 7.12

Input line: Also COc1cc2c(cc1OC)CN(CCCNc1ccc([N+](=O)[O-])c(C(F)(F)F)c1)CC2 ?
Output line: 7.79

Input line: Also COc1cc2c(cc1OC)CN(CCCCNc1ccc([N+](=O)[O-])c(C(F)(F)F)c1)CC2 ?
Output line: 7.64

Input line: Also O=[N+]([O-])c1ccc(NCCCCCN2CCC(Cc3ccccc3)CC2)cc1C(F)(F)F ?
Output line: 7.62

Input line: Also O=[N+]([O-])c1ccc(NCCCCN2CCC(Cc3ccccc3)CC2)cc1C(F)(F)F ?
Output line: 8.08

Input line: Also O=[N+]([O-])c1ccc(NCCCN2CCC(Cc3ccccc3)CC2)cc1C(F)(F)F ?
Output line: 7.65

====

Task for the reader: assign each of the following compounds its reported EC50 at 24 h.
- assay-details: Dark toxicity in human MCF7 cells assessed as decrease in cell viability after 24 hrs by MTT assay
- Format: cell-based
- condition-info: read-out: pEC50 (converted)
Note: unit µM is implicit; provide only the numeric part.

Input line: Look up EC50 at 24 h: O=[N+]([O-])c1ccc(NCCCCCN2CCC(Cc3ccccc3)CC2)cc1C(F)(F)F
Output line: 14.8

Input line: Also COc1cccc2c1C(=O)c1c(O)c3c(c(O)c1C2=O)C[C@@](O)(C(=O)CO)C[C@@H]3O[C@H]1C[C@H](N)[C@H](O)[C@H](C)O1 [DOXORUBICIN] ?
Output line: 15.5

====

- assay-details: Dark toxicity in human NCTC-2544 cells assessed as decrease in cell viability after 24 hrs by MTT assay
- Assay type: cell-based
- condition-info: read-out: pEC50 (converted)
Task for the reader: assign each of the following compounds its reported EC50 at 24 h.

Input line: Look up EC50 at 24 h: O=[N+]([O-])c1ccc(NCCCCCN2CCC(Cc3ccccc3)CC2)cc1C(F)(F)F
Output line: 15.1 µM

Input line: Also COc1cccc2c1C(=O)c1c(O)c3c(c(O)c1C2=O)C[C@@](O)(C(=O)CO)C[C@@H]3O[C@H]1C[C@H](N)[C@H](O)[C@H](C)O1 ?
Output line: 32.4 µM

Input line: Also COc1cc2c(cc1OC)CN(CCCCCNc1ccc([N+](=O)[O-])c(C(F)(F)F)c1)CC2 ?
Output line: > 100 µM

Input line: Also COc1cc2c(cc1OC)CN(CCNc1ccc([N+](=O)[O-])c(C(F)(F)F)c1)CC2 ?
Output line: > 100 µM

====

- assay-details: Dark toxicity in human NCTC-2544 cells assessed as decrease in cell viability after 24 hrs by MTT assay
- Type: cell-based
- condition-info: read-out: EC50
endpoint-name: EC50 at 24 h (µM)
Note: unit µM is implicit; provide only the numeric part.

Input line: Look up EC50 at 24 h: O=[N+]([O-])c1ccc(NCCCCCN2CCC(Cc3ccccc3)CC2)cc1C(F)(F)F
Output line: 15

Input line: Also COc1cccc2c1C(=O)c1c(O)c3c(c(O)c1C2=O)C[C@@](O)(C(=O)CO)C[C@@H]3O[C@H]1C[C@H](N)[C@H](O)[C@H](C)O1 ?
Output line: 32.5

Values compiled from ChEMBL document CHEMBL4020818.
